# Tested System: T1, AgeI D142A (UniProt Q9KHV6 1-278, D142A)
# T1 sequence: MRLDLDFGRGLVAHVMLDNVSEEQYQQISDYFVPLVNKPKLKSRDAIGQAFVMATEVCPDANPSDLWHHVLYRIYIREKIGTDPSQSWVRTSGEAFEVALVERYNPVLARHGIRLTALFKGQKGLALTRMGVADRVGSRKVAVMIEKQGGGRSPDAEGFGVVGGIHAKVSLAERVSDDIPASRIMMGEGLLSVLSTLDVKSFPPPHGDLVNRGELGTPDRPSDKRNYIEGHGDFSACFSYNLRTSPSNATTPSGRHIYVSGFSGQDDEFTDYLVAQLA
# Test Description: EMSA
Readout: Kd (nM)
Form entry: value (nM) — number only.

## Task I'd like to know its Kd. The binder in question is SP (specific) (dsDNA) DNA 1: AGACCCACGCTCACCGGTTCCAGATTTATC DNA 2: GATAAATCTGGAACCGGTGAGCGTGGGTCT
## Result 2.4

// data source = paper PMC5389614
